experiment: Cardiotoxicity in dog purkinje fiber assessed as change in resting membrane potential at basic cycle length of 1 second at 10 uM; type: toxicity, Canis lupus familiaris
experimentalEndpoint: Activity (mV)

structurestring=O=C(O)c1ccc(Sc2ccc(CN3CCC(N4C(=O)N(C5CCOCC5)C[C@H]4c4ccccc4)CC3)cn2)cc1 unit=mV testresult=0.4
structurestring=Cc1nc(Oc2ccc(C(N)=O)cc2)ccc1CN1CCC(N2C(=O)N(C3CCOCC3)C[C@H]2c2ccccc2)CC1 unit=mV testresult=-0.5
structurestring=Cc1nc(Oc2ccc(C(=O)O)cc2)ccc1CN1CCC(N2C(=O)N(C3CCOCC3)C[C@H]2c2ccccc2)CC1 unit=mV testresult=0.4
structurestring=Cc1nc(Oc2ccc(C(=O)O)cc2)ccc1CN1CCC(N2C(=O)N(C3CCOCC3)C[C@H]2c2cccc(Cl)c2)CC1 unit=mV testresult=0.1
